# maps each entry to its protein stability index
B1: SNAP91 (parent)
chain: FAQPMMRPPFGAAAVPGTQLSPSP

Variants of: B1
Experiment summary: protein stability index of a GFP-peptide fusion (GPS, HEK-293T) (PSI 1-6); higher = more stable;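 further: lentivirally expressed fusions sorted by FACS into six bins by GFP to DsRed ratio, PSI derived from sequencing read proportions per bin multiplied by bin number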
Test conditions: c terminus: a fixed tail appended

Variant identifier: P16V
protein stability index: 3.33

Variant identifier: P4V
protein stability index: 2.33

Variant identifier: P16A
protein stability index: 3.29

Variant identifier: A12P
protein stability index: 2.7

Variant identifier: M5A
protein stability index: 3.49

Variant identifier: S23C
protein stability index: 3.25

Variant identifier: P8G
protein stability index: 2.97

Variant identifier: S23T
protein stability index: 3.27

Variant identifier: S21Q
protein stability index: 3.29

Variant identifier: V15Y
protein stability index: 2.83

Variant identifier: A2R
protein stability index: 3.85

Variant identifier: L20M
protein stability index: 2.92

Variant identifier: T18K
protein stability index: 2.75

Variant identifier: T18H
protein stability index: 2.82

Variant identifier: Q19E
protein stability index: 2.72

Variant identifier: P22M
protein stability index: 2.86

Variant identifier: P22Q
protein stability index: 3.57

Variant identifier: G11V
protein stability index: 3.35

Variant identifier: A13V
protein stability index: 2.73

Variant identifier: P9D
protein stability index: 4.04

Variant identifier: F10K
protein stability index: 3.83

Variant identifier: A14F
protein stability index: 2.65

Variant identifier: R7I
protein stability index: 2.4

Variant identifier: A14T
protein stability index: 2.45

Variant identifier: F1E
protein stability index: 4.68

Variant identifier: P4R
protein stability index: 2.54

Variant identifier: V15E
protein stability index: 2.98

Variant identifier: S21F
protein stability index: 3.01

Variant identifier: P4N
protein stability index: 2.36

Variant identifier: Q3Y
protein stability index: 1.82

Variant identifier: V15W
protein stability index: 2.52

Variant identifier: P4S
protein stability index: 2.26

Variant identifier: P24F
protein stability index: 2.65

Variant identifier: G11H
protein stability index: 2.91

Variant identifier: A12S
protein stability index: 2.91

Variant identifier: P16S
protein stability index: 3.02

Variant identifier: A14K
protein stability index: 3.21

Variant identifier: P16D
protein stability index: 2.99

Variant identifier: G17Y
protein stability index: 2.74

Variant identifier: A13K
protein stability index: 3.13

Variant identifier: R7A
protein stability index: 3.55

Variant identifier: A2S
protein stability index: 3.81

Variant identifier: T18A
protein stability index: 3.1

Variant identifier: Q19K
protein stability index: 2.41

Variant identifier: S23E
protein stability index: 3.32

Variant identifier: M5H
protein stability index: 2.86
